Here the recorded melting point is given for each entry.

smiles-repr: C/C=C/c1c(O)ccc2oc3c(c12)CCCNC3=O
melting point: > 300 °C
//
smiles-repr: Nc1ccc2sc3c(c2c1)SCCNC3=O
melting point: 198.6 to 199 °C
//
smiles-repr: Nc1ccc2[nH]c3c(c2c1)CCNC3=O
melting point: 280 to 282 °C
//
smiles-repr: O=C(CCl)Nc1ccc2sc3c(c2c1)SCCNC3=O
melting point: 229 to 230 °C (dec.)
//
smiles-repr: COc1ncc2sc3c(c2n1)SCCNC3=O
melting point: 308 °C (dec.)

###

Measured IC50 (PLK1 (Homo sapiens))
measured-attribute: IC50

smiles-repr: [N-]=[N+]=Nc1ccc2sc3c(c2c1)SCCNC3=O
result-value: > 50 µM

smiles-repr: COc1ccc2sc3c(c2c1)SCCCNC3=O
result-value: > 50 µM

smiles-repr: COc1ccc2sc3c(c2c1)SCCNC3=O
result-value: > 50 µM
